System: TAMH cells transfected with Neo vector (Neo)
protocol.summary: Cytotoxicity / apoptosis induction in TAMH cells transfected with Neo vector
Assay type: cell-based
experimental.setup: Mus musculus, TAMH; Table 20; read-out: Neo
pEC50: −log10 of the molar value.

molecule: Cc1cc(C)c(O)c(CNCc2ccccc2)c1 [Compound 47911]
pEC50: 4.50

----------
Tested on: TAMH cells transfected with Neo vector (Neo)
protocol.summary: Cytotoxicity / apoptosis induction in TAMH cells transfected with Neo vector
Format: cell-based
experimental.setup: Mus musculus, TAMH; Table 16; read-out: TAMH Neo IC50
Protocol: To examine the sensitivity of cells over-expressing Bcl-xL to various mitochondrial inhibitors and apoptosis inducers, cell lines over-expressing Bcl-xL were prepared and tested according to Hockenberry et al. U.S. Pat. No. 7,241,804, hereby incorporated by reference in its entirety. […] Competitive binding of compounds with BH-3 peptide were also measured using Bcl-xL as previously described. […]
reported.property: IC50

compound: COc1ccc(C(=O)N/N=C2\C(=O)c3c(C)cc(C)cc3CC2(C)C)cc1 [Compound 310343]
measured: > 100 µM

----------
System: TAMH cells transfected with Neo vector (Neo)
protocol.summary: Cytotoxicity / apoptosis induction in TAMH cells transfected with Neo vector
Format: cell-based
experimental.setup: Table 4; TAMH Neo cells; read-out: Neo
Form field: EC50 (one value per entry).
reported.property: EC50

compound: CC(C)(C)c1cc(Br)c(O)c(/C=N/Nc2ccccn2)c1
measured: > 25 µM

compound: COc1cc(Br)c(O)c(/C=N/NC(=O)c2ccccc2)c1
measured: > 25 µM

compound: O=[N+]([O-])c1cccc(/C=N/Nc2ccccn2)c1O
measured: > 25 µM

compound: COc1cc(Br)cc(/C=N/Nc2ccc(C(F)(F)F)cc2)c1O
measured: > 25 µM

compound: Oc1c(Cl)cc(Cl)cc1/C=N/Nc1ccc(C(F)(F)F)cn1
measured: 11 µM

compound: COc1cc(O)c(/C=N/Nc2ccccn2)cc1Br
measured: > 25 µM

compound: Oc1c(Br)cc(Cl)cc1/C=N/Nc1ccc(C(F)(F)F)cn1
measured: 17.2 µM

----------
Test system: TAMH cells overexpressing Bcl-xL (TAMH-Bcl-xL, Tabx2s)
protocol.summary: Cytotoxicity / apoptosis induction in TAMH cells overexpressing Bcl-xL
Format: cell-based
experimental.setup: Table 8; selectivity ratio

compound: Cc1cc(C)c(O)c(CNCc2ccccc2)c1 [Compound 47911]
Neo/Bcl-xL: 7.8

compound: O=[N+]([O-])c1ccc(S(=O)(=O)Cc2ccccc2)c2nonc12 [Compound 228148]
Neo/Bcl-xL: 3.8

compound: Oc1ccc(Cl)cc1Cc1cc(Cl)cc(Cc2cc(Cl)ccc2O)c1O [Compound 47932]
Neo/Bcl-xL: 7

compound: Oc1ccc(Cl)cc1Sc1cc(Cl)ccc1O [Compound 55636]
Neo/Bcl-xL: 7.7

----------
protocol.summary: Log P
experimental.setup: Table 3
# strict inequality: Log P < 4 yields class 1, everything else yields class 0

compound: COc1cc(O)c(/C=N/Nc2ccccn2)cc1Br
answer.label: class 1
//
compound: Oc1ccc(Cl)cc1/C=N/Nc1ccccn1
answer.label: class 1
//
compound: COc1c(Cl)cc(/C=N/Nc2ccccn2)c(O)c1Br
answer.label: class 1
//
compound: Oc1ccc(Cl)cc1/C=N/Nc1ccc(C(F)(F)F)cn1
answer.label: class 1
//
compound: Oc1c(Cl)cc(Cl)cc1/C=N/Nc1ccccn1
answer.label: class 1
//
compound: Oc1ccc(Br)cc1/C=N/Nc1ccccn1
answer.label: class 1
//
compound: CC(C)(C)c1cc(O)c(/C=N/Nc2ccccn2)cc1Br
answer.label: class 0
//
compound: Oc1c(Br)cc(Br)cc1/C=N/Nc1ccccn1
answer.label: class 1
//
compound: COc1cc(Br)cc(/C=N/Nc2ccc(C(F)(F)F)cc2)c1O
answer.label: class 0
//
compound: Oc1c(Br)cc(Cl)cc1/C=N/Nc1ccc(C(F)(F)F)cn1
answer.label: class 0
//
compound: CC(C)(C)c1cc(Br)c(O)c(/C=N/Nc2ccccn2)c1
answer.label: class 0
//
compound: COc1cc(Br)c(O)c(/C=N/NC(=O)c2ccccc2)c1
answer.label: class 1
